- System: 126254-015-R-J1-PDC complex spheroid growth, % test/control
- PROCEDURE TEXT: Anticancer human tumor 126254-015-R-J1-PDC patient-derived soft tissue sarcoma cell line growth inhibition [Asc]
- DETAILS: second compound 0.3 µM; first compound 0.316 µM; active compounds read low
Items are presented alongside their recorded viability, T/C.

- COc1c(OCCCN2CCOCC2)ccc2c3n(c(=NC(=O)c4cnc(N)nc4)nc12)CCN3 + CCN1C(C(=O)NC23CCC(C(=O)O)(CC2)CC3)C(c2cccc(Cl)c2F)C2(C(=O)Nc3cc(Cl)ccc32)C12CCCCC2: 16.3%
- C=CC(=O)N1CCN(c2nc(=O)n(-c3c(C)ccnc3C(C)C)c3nc(-c4c(O)cccc4F)c(F)cc23)C(C)C1 (centres undefined) + CCN1C(C(=O)NC23CCC(C(=O)O)(CC2)CC3)C(c2cccc(Cl)c2F)C2(C(=O)Nc3cc(Cl)ccc32)C12CCCCC2: 106%

Notebook: pull reported viability, T/C for 126254-015-R-J1-PDC complex spheroid growth, % test/control, entry C#Cc1c(F)ccc2cc(O)cc(-c3ncc4c(N5CC6CCC(C5)N6)nc(OCC56CCCN5CC(F)C6)nc4c3F)c12 (centres undefined) + CCN1C(C(=O)NC23CCC(C(=O)O)(CC2)CC3)C(c2cccc(Cl)c2F)C2(C(=O)Nc3cc(Cl)ccc32)C12CCCCC2 97.7%

Again, but for CCN1CCN(Cc2ccc(Nc3ncc(F)c(-c4cc(F)c5nc(C)n(C(C)C)c5c4)n3)nc2)CC1 + CCN1C(C(=O)NC23CCC(C(=O)O)(CC2)CC3)C(c2cccc(Cl)c2F)C2(C(=O)Nc3cc(Cl)ccc32)C12CCCCC2 101%

====

// reported viability, T/C per item
- System: 126254-015-R-J1-PDC complex spheroid growth, % test/control
- PROCEDURE TEXT: Anticancer human tumor 126254-015-R-J1-PDC cell line growth inhibition [Asc];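 further: spheroids exposed to compound for seven days; 100% = DMSO vehicle control wells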
- DETAILS: second compound 0.1 µM; first compound 0.001 µM; active compounds read low
Please give a number only; it is taken to be in %.

Worked examples, 3 compounds total:
• Cn1ncnc1[C@H]1c2n[nH]c(=O)c3cc(F)cc(c23)N[C@@H]1c1ccc(F)cc1 + CNC(C)C(=O)NC1CN(S(=O)(=O)c2cccc(S(=O)(=O)N3CCC4CCC(C(=O)NC(c5ccccc5)c5ccccc5)N4C(=O)C(NC(=O)C(C)NC)C3)c2)CCC2CCC(C(=O)NC(c3ccccc3)c3ccccc3)N2C1=O = 67.4
• Cn1ncnc1[C@H]1c2n[nH]c(=O)c3cc(F)cc(c23)N[C@@H]1c1ccc(F)cc1 + Cc1c(S(C)(=O)=O)c(-c2cc(F)cc(N3CCN(c4ccc(NS(=O)(=O)c5ccc(NC(CCN6CCC(C(=O)OCCCP(=O)(O)O)CC6)CSc6ccccc6)c(S(=O)(=O)C(F)(F)F)c5)cc4)CC3)c2)c(-c2ccc(Cl)cc2)n1C(C)C = 89.9
• NC1CCC(NC2CC2c2ccccc2)CC1 (centres undefined) + CNC(C)C(=O)NC1CN(S(=O)(=O)c2cccc(S(=O)(=O)N3CCC4CCC(C(=O)NC(c5ccccc5)c5ccccc5)N4C(=O)C(NC(=O)C(C)NC)C3)c2)CCC2CCC(C(=O)NC(c3ccccc3)c3ccccc3)N2C1=O = 71.3

--- query ---
Would you mind telling me what viability, T/C value was observed for NC1CCC(NC2CC2c2ccccc2)CC1 (centres undefined) + Cc1c(S(C)(=O)=O)c(-c2cc(F)cc(N3CCN(c4ccc(NS(=O)(=O)c5ccc(NC(CCN6CCC(C(=O)OCCCP(=O)(O)O)CC6)CSc6ccccc6)c(S(=O)(=O)C(F)(F)F)c5)cc4)CC3)c2)c(-c2ccc(Cl)cc2)n1C(C)C ? 88.8
